target_or_system: membrane LIGHT without residues 81-84 (EL4-NC-LIGHT cells) (human, UniProt O43557 1-240)
Sequence (O43557 other isoform, or with tags, fused parts or gaps): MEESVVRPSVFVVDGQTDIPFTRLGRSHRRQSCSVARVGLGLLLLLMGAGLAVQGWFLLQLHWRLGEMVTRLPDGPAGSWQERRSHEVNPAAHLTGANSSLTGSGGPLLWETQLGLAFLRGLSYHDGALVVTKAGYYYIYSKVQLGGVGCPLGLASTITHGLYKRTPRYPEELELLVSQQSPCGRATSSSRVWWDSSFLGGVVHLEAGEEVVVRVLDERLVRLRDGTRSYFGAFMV
procedure_text: cell-based or functional assay
attribute_measured: IC50, inhibition of IL-8 secretion from HT-29 cells (EL4-NC-LIGHT cells) (nM)

{"binder": "3B04 (antibody, human IgG4, V domains shown, chimeric: mouse variable domains on human IgG4 HC (S-to-P and L-to-E at 248) and human CL; also called Parental 3B04; 3B04 chimeric) VH: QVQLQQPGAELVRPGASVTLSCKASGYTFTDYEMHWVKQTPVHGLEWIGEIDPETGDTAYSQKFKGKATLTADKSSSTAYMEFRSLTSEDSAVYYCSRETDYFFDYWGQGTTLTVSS VL: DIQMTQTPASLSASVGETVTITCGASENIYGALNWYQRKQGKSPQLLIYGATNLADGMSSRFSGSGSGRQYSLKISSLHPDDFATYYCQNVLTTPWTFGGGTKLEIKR", "display_unit": "nM", "quantitative_readout": 0.05}
{"binder": "3D12_var6 (antibody, human IgG4, V domains shown, human IgG4 (S241P, L248E, Kabat); also called 3D12 VL2VH2 (var6)) VH: QVQLVQSGAEVKKPGASVKVSCKASDYTFTDSEIHWVRQAPGQGLEWIGEIDPETGGTAYNQKFQGRVTLTADKSTSTAYMELSSLRSEDTAVYYCSRETDYFFDYWGQGTLVTVSS VL: DIQMTQSPSSLSASVGDRVTITCGASENIYGALNWYQRKQGKAPKLLIYGATNLADGVPSRFSGSGSGRDYTLTISSLQPEDVATYYCQNVLSTPWTFGQGTKLEIKR", "display_unit": "nM", "quantitative_readout": 0.47}
{"binder": "3D12_var3 (antibody, human IgG4, V domains shown, human IgG4 (S241P, L248E, Kabat); also called 3D12 VL1VH3 (var3)) VH: QVQLVQSGAEVKKPGASVKVSCKASDYTFTDSEIHWVRQAPGQGLEWMGEIDPETGGTAYAQKFQGRVTLTADKSTSTAYMELSSLRSEDTAVYYCSRETDYFFDYWGQGTLVTVSS VL: DIQMTQSPSSLSASVGDRVTITCGASENIYGALNWYQRKQGKAPQLLIYGATNLADGVSSRFSGSGSGRDYTLTISSLQPEDVATYYCQNVLSTPWTFGQGTKLEIKR", "display_unit": "nM", "quantitative_readout": 0.53}
{"binder": "3D12_var12 (antibody, human IgG4, V domains shown, human IgG4 (S241P, L248E, Kabat); also called 3D12 VL3VH4 (var12)) VH: QVQLVQSGAEVKKPGASVKVSCKASGYTFTDSEMHWVRQAPGQGLEWMGEIDPETGGTAYAQKFQGRVTLTADKSTSTAYMELSSLRSEDTAVYYCSRETDYFFDYWGQGTLVTVSS VL: DIQMTQSPSSLSASVGDRVTITCGASENIYGALNWYQQKPGKAPKLLIYGATNLADGVPSRFSGSGSGRDYTLTISSLQPEDVATYYCQNVLSTPWTFGQGTKLEIKR", "display_unit": "nM", "quantitative_readout": 0.58}
{"binder": "3B04_var16 (antibody, human IgG4, V domains shown, human IgG4 (S241P, L248E, Kabat); also called 3B04 VL4VH4 (var16); 3B04 variant 16) VH: QVQLVQSGAEVKKPGASVKVSCKASGYTFTDYEMHWVRQAPGQGLEWMGEIDPETGDTAYAQKFQGRVTLTADKSTSTAYMELSSLRSEDTAVYYCSRETDYFFDYWGQGTLVTVSS VL: DIQMTQSPSSLSASVGDRVTITCRASENIYGALNWYQQKPGKAPKLLIYGATNLAEGVPSRFSGSGSGRDYTLTISSLQPEDFATYYCQNVLTTPWTFGQGTKLEIKR", "display_unit": "nM", "quantitative_readout": 0.1}
